experimental system: Integrase (Human immunodeficiency virus 1)
experimental details: Inhibitory concentration against human immuno deficiency virus type 1 integrase (3'-processing)
readout name: IC50 (µM)

# example entries with known answers
O=C(CN1C(=O)/C(=C2\SC(=S)N(CC(=O)Nc3ccc(C(=O)O)cc3)C2=O)SC1=S)Nc1ccc(C(=O)O)cc1 : 59
O=C(CCN1C(=O)/C(=C/c2ccc3c(c2)OCO3)SC1=S)Nc1ccc2c(c1)OCO2 : 97
O=C(CCN1C(=O)/C(=C/c2ccc3c(c2)OCO3)SC1=S)Nc1ccc(O)c(C(=O)O)c1 : 15
O=C(NN1C(=O)C(=Cc2ccc(Br)cc2)SC1=S)c1ccccc1O : 52

a. COc1ccc(/C=C2/SC(=S)N(CCC(=O)Nc3ccc(C(=O)O)c(O)c3)C2=O)cc1OC
b. CCOc1ccc(/C=C2\SC(=S)N(CCC(=O)Nc3cccc(C(=O)O)c3)C2=O)cc1
[Q] # argmax over IC50 for candidates a and b Refer to your chosen item by its label in the answer.
[A] b
